# TEST: in vivo
# Parameters: species or system nude mice
# RECORDED CONDITIONS: nude, mouse, total radioactivity, Tumor-to-tissue ratio Spleen
*1 amine or outer side, *2 acyl side, *3 side chain or, on linkers, in order; H or OH if unused. Where a SMILES comes first, the peptide text is derived from it. Side-chain parts run from the residue outwards. [ ]: non-standard residue; d: D form. The star is where a group is joined. DOTA = O=C(O)CN1CCN(CC(=O)O)CCN(CC(=O)*)CCN(CC(=O)O)CC1; NH(2-(imidazol-4-yl)ethyl) = c1ncc(CCN*)[nH]1; Suc = O=C(CCC(=O)[*:2])[*:1]
MEASURED QUANTITY: tissue to tissue ratio at 6 h
Field format: numeric only.

Query string: // tissue to tissue ratio at 6 h lookup, key: NC(=O)[C@H](CCCCNC(=O)CNC(=O)CCC(=O)NCCc1cnc[nH]1)NC(=O)[C@@H](Cc1ccc(O)cc1)NC(=O)[C@H](CCCCNC(=O)CNC(=O)CCC(=O)NCCc1cnc[nH]1)NC(=O)[C@H](Cc1ccccc1)NC(=O)CN1CCN(CC(=O)O)CCN(CC(=O)O)CCN(CC(=O)O)CC1 [Ga-67-IMP 241, metal not drawn] ({DOTA}-FK([Gly-Suc-NH(2-(imidazol-4-yl)ethyl)])[dY]K([Gly-Suc-NH(2-(imidazol-4-yl)ethyl)])-NH2)
Result string: 17.4
